Data origin, for the record: PubChem BioAssay (NCATS)

- Condition Parameters: Ebola virus entry assay, reporter ratio channel; Channel type: primary
Active and inactive are the calls of the source. The rule behind the calls is not given here.
Hello, when you answer, please use one of the following outcomes: t (active), f (inactive)

> print(dat)
                                    molecule  assigned.class
 1  COc1ccc(CCN(C)CCCC(C#N)(c2cc(OC)c(OC)c(OC)c2)C(C)C)cc1OC (configuration not stated)               t
 2       Nc1c(CC(=O)O)cccc1C(=O)c1ccc(Br)cc1               f
 3  O=C1NC2CCCCN2C12CCN(CCCN1c3ccccc3CCc3ccc(Cl)cc31)CC2 (configuration not stated)               t
 4  C[C@@H]1C[C@H]2[C@@H]3CCC4=CC(=O)C=C[C@]4(C)[C@@]3(F)[C@@H](O)C[C@]2(C)[C@H]1C(=O)CO               f
 5  CC(=O)OC/C=C(C)/C=C/C=C(C)/C=C/C1=C(C)CCCC1(C)C               f
 6  CCCC(=O)O[C@]1(C(=O)CC)CC[C@H]2[C@@H]3CCC4=CC(=O)CC[C@]4(C)[C@H]3[C@@H](O)C[C@@]21C               f
 7          CN1CCC(=C2c3ccccc3Sc3ccccc32)CC1               t
 8  C[C@@H]1O[C@@H](O[C@@H]2C=C3CC[C@@H]4[C@H](CC[C@]5(C)[C@@H](c6ccc(=O)oc6)CC[C@]45O)[C@@]3(C)CC2)[C@H](O)[C@H](O)[C@H]1O               t
 9  CC[C@H](O)C(C[C@H](C)N(C)C)(c1ccccc1)c1ccccc1               t
10  O=C1NCN(c2ccccc2)C12CCN(CCCC(c1ccc(F)cc1)c1ccc(F)cc1)CC2               t

*Q* I would be grateful if you could indicate the recorded call for C[C@]1(Cn2ccnn2)[C@H](C(=O)O)N2C(=O)C[C@H]2S1(=O)=O .
*A* t

*Q* I would be grateful if you could indicate the recorded call for C/C(=C(/OCCOc1ccc(Cl)cc1)c1ccc(Cl)cc1Cl)n1ccnc1 .
*A* t

*Q* I would be grateful if you could indicate the recorded call for Nc1ccncc1N .
*A* f

*Q* I would be grateful if you could indicate the recorded call for CC(C)c1cc2c(cc1S(=O)(=O)O)[C@@]1(C)CCC[C@@](C)(C(=O)O)[C@@H]1CC2 .
*A* f

*Q* I would be grateful if you could indicate the recorded call for Cc1ccc(CCn2c3c(c4cc(Cl)ccc42)CN(C)CC3)cn1 .
*A* t

*Q* I would be grateful if you could indicate the recorded call for NCCc1ccc(O)c(O)c1 .
*A* f

*Q* I would be grateful if you could indicate the recorded call for CCN(CCCCOC(=O)c1ccc(OC)c(OC)c1)C(C)Cc1ccc(OC)cc1 (configuration not stated) .
*A* t

* * *

- Protocol: Confirmatory qHTS for activators (rescue) of SARS-CoV-2 Cytopathic Effect (CPE) (AID 1508606); note: nearly all actives have a fitted effect of over 70% in size
- Condition Parameters: Vero E6 SARS-CoV-2 CPE rescue, viability luminescence; series mostly up to 20 µM
Results filed as inconclusive are left out. Active and inactive are the calls of the source. Calls follow the shape of the full dose curve.
Hello, when you answer, please use one of the following outcomes: t = active, f = inactive

These solved cases illustrate the format of a correct answer.
Molecule	Assigned Class
CN1CCC(=C2c3ccccc3CCc3sccc32)CC1	t
CC(C)COCC(CN(Cc1ccccc1)c1ccccc1)N1CCCC1 (stereo unspecified)	t
CC(C(O)c1ccccc1)N(C)CCOC(c1ccccc1)c1ccccc1 (stereo unspecified)	t
O=C(CCCN1CCN(c2ccc(F)cc2)CC1)NC1c2ccccc2CSc2ccccc21 (stereo unspecified)	f
COC(=O)[C@H]1[C@H]2C[C@@H]3c4[nH]c5cc(OC)ccc5c4CCN3C[C@H]2C[C@@H](OC(=O)/C=C/c2ccc(O)c(OC)c2)[C@@H]1OC	t
CN(C)CC/C=C1\c2ccccc2Sc2ccc(Cl)cc21	t

*Q* I would be grateful if you could indicate the recorded call for CC(=O)c1ccc2c(c1)N(CCCN1CCC(CCO)CC1)c1ccccc1S2 .
*A* t

*Q* I would be grateful if you could indicate the recorded call for CCN(CC)CCNc1ccc(CO)c2sc3ccccc3c(=O)c12 .
*A* f

*Q* I would be grateful if you could indicate the recorded call for CCN(CC)CCCC(C)Nc1c2ccc(Cl)cc2nc2ccc(OC)cc12 (stereo unspecified) .
*A* f

*Q* I would be grateful if you could indicate the recorded call for CCCN(CCC)C(=O)C(CCC(=O)OCCCN1CCN(CCOC(=O)Cc2c(C)n(C(=O)c3ccc(Cl)cc3)c3ccc(OC)cc23)CC1)NC(=O)c1ccccc1 (stereo unspecified) .
*A* t
